Test system: glial cells
Experimental Protocol: Toxicity of transduced peptides to glial cells in primary hippocampal cultures (GFAP immunostaining, quantitative image analysis)
Assay type: cell-based, rat
Conditions: rat, astrocytes (glial cells in primary hippocampal cultures)
No end group written: not given here.

# Primary Sequence, CC50
measured = [
    ("AAVTPEERHLSKMQQNGYENPTYKFFEQMQN [C31]", "10 to 25 µM"),
]

###

System: primary hippocampal cultures
Experimental Protocol: Viability of primary hippocampal cultures by trypan blue exclusion
Assay type: cell-based, rat
Conditions: preincubation with 5 μM Aβ for 24 h, then transduction in absence of Aβ; read-out: LC50 in primary cultures pre-exposed to sublethal fibrillar Aβ
No end group written: not given here.

# Primary Sequence, CC50
measured = [
    ("AAVTPEERHLSKMQQNGYENPTYKFFEQMQN [C31]", "< 500 nM"),
]
